experiment: chemical genetic growth profiling, strain panel (AID 1159580);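 further: tested at 20 µM; growth read once vehicle control cultures reached saturation at 30 °C; 1 = growth at the plate median or of vehicle wells; lower values mean less growth of the strain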; conditions: S. cerevisiae deletion strains, growth OD, locus YDR101C, strain arx1, active compounds read low
Hit rate of the full screen: of about 5,500 compounds, about 2,000 (36%) were called active. Not shown: some 18% with an inconclusive outcome. The list shows a part of the results.
Readout Name: normalized growth

INSERT INTO assay_data (compound, value_measured) VALUES
  ('COC(=O)C1[C@H]2C[C@H]3c4[nH]c5ccccc5c4CCN3C[C@@H]2CC[C@@H]1O (stereo partly drawn)', '1.01 (inactive)'),
  ('COc1cc2c(cc1OC)C(=O)C(CC1CCN(Cc3ccccc3)CC1)C2 (stereo not drawn)', '0.904 (active)'),
  ('CCc1nc(N)nc(N)c1-c1ccc(Cl)cc1', '0.987 (inactive)'),
  ('N#Cc1c(Cl)c(Cl)c(Cl)c(C#N)c1Cl', '0.986 (inactive)'),
  ('CC(=O)OCC(CCn1cnc2cnc(N)nc21)COC(C)=O', '0.983 (inactive)'),
  ('COC1C(O)C(O)C(O)[C@@H](O)C1O (stereo partly drawn)', '1.04 (inactive)'),
  ('CCC1(c2ccccc2)C(=O)NCNC1=O', '1.01 (inactive)'),
  ('COc1c2c(c(CC=C(C)C)c3oc(=O)c(-c4ccc(O)cc4)c(O)c13)OC(C)(C)C=C2', '0.775 (active)'),
  ('CC(C)(C)CC(C)(C)c1ccc(OCCOCC[N+](C)(C)Cc2ccccc2)cc1', '0.991 (inactive)'),
  ('C=C(C)/C=C1/C=CC(=O)C(C)=C1', '0.613 (active)'),
  ('CN=C(NC#N)NCCSCc1nc[nH]c1C', '0.992 (inactive)'),
  ('Cc1c(N(C)C)c(=O)n(-c2ccccc2)n1C', '0.99 (inactive)'),
  ('C=CC1=C(C(=O)O)N2C(=O)[C@@H](NC(=O)/C(=N/O)c3csc(N)n3)[C@H]2SC1', '0.99 (inactive)'),
  ('CC1(O)/C=C/C=C(\CO)C2CC(C)(C)C2(O)CC1 (stereo not drawn)', '0.976 (inactive)'),
  ('CCC1(C)CC(=O)NC1=O (stereo not drawn)', '1.04 (inactive)'),
  ('c1ccc(CN(CC2=NCCN2)c2ccccc2)cc1', '0.994 (inactive)'),
  ('CCN(CC)C(=S)SSC(=S)N(CC)CC', '0.101 (active)'),
  ('COc1ccc2cc1Oc1ccc(cc1)C[C@H]1c3cc(c(OC)cc3CCN1C)Oc1c(OC)c(OC)cc3c1[C@H](C2)N(C)CC3', '1.01 (inactive)'),
  ('Cc1cc(C(C)(C)CC(C)(C)C)ccc1OCCOCC[N+](C)(C)Cc1ccccc1', '0.0572 (active)'),
  ('c1ccc(CC2=NCCN2)cc1', '0.903 (active)'),
  ('CCCCCCCCCCCCC[N+](C)(C)Cc1ccccc1', '0.0615 (active)'),
  ('COc1c(CC=C(C)C)c2c(c3oc(=O)c(-c4ccc(OC(C)=O)cc4)c(OC(C)=O)c13)C=CC(C)(C)O2', '1.01 (inactive)'),
  ('O=C(O)C1C(O)CCC2CN3CCc4c([nH]c5ccccc45)C3CC21 (stereo not drawn)', '1.01 (inactive)');
